- Tested on: Micrococcus luteus ATCC9341
Can you tell me MIC for the items I'm about to list?

Consider the reported MIC for these molecules:
1) C=C1CC(C)OC(OCC2/C=C(C)/C=C/C(=O)C(C)CC(C)C(OC3OC(C)C(O)C(N(C)C)C3O)C(C)C(OC(=O)CC)CC(=O)OC2CC)C1OC (stereo not shown); 0.2 µg/mL
2) CCC1OC(=O)CC(O)C(C)C(OC2OC(C)CC(N(C)C)C2O)C(C)CC(C)C(=O)/C=C/C(C)=C/C1COC1OC(C)C=C(OC)C1OC (stereo not shown); ≤ 0.05 µg/mL
3) CCC1OC(=O)CC(O)C(C)C(OC2OC(C)C(O)C(N(C)C)C2O)C(C)CC(C)C(=O)/C=C/C(C)=C/C1COC1OC(C)CC(=O)C1OC (stereo not shown); 0.2 µg/mL
4) C=C1CC(C)OC(OCC2/C=C(C)/C=C/C(=O)C(C)CC(C)C(OC3OC(C)C(O)C(N(C)C)C3O)C(C)C(O)CC(=O)OC2CC)C1OC (stereo not shown); 0.1 µg/mL
5) C=C1CC(C)OC(OCC2/C=C(C)/C=C/C(=O)C(C)CC(C)C(OC3OC(C)CC(N(C)C)C3O)C(C)C(O)CC(=O)OC2CC)C1OC (stereo not shown); ≤ 0.05 µg/mL

For each of the items listed, what is its MIC?
1. C=C1CC(C)OC(OCC2/C=C(C)/C=C/C(=O)C(C)CC(C)C(OC3OC(C)C(O)C(N(C)C)C3O)C(C)C(OC(=O)N(C)C)CC(=O)OC2CC)C1OC (stereo not shown)
2. CCC1OC(=O)CC(O)C(C)C(OC2OC(C)C(O)C(N(C)C)C2O)C(CC=O)CC(C)C(=O)/C=C/C(C)=C/C1COC1OC(C)C(O)C(OC)C1OC (stereo not shown) [Des, Desmycosin (4'-demycarosyltylosin), reference compound]

Response given:
["0.2 µg/mL", "0.2 µg/mL"]

Recorded values, source patent US4868290A.
